Reported pKi by item:
EXPERIMENTAL SYSTEM: β-secretase (BACE) (Homo sapiens)
Construct: purchased Panvera
ASSAY EXPLANATION: BACE FS1 Assay (% Inhibition and Ki)
Type: biochemical
MEASUREMENT CONDITIONS: FS1 substrate
pKi: −log10 of the molar value. Where a name gives a salt, the structure may show the parent alone.

{"COMPOUND": "COC(=O)[C@H](COCc1ccccc1)NC(=O)CC[C@@H](C(C)C)N1Cc2cc(Oc3ccccc3)ncc2N=C1N [Compound 45, hydrobromide salt]", "pKi": 6.90}
{"COMPOUND": "CCOC(=O)CCN(C)C(=O)CC[C@@H](C(C)C)N1Cc2cc(Oc3ccccc3)ncc2N=C1N", "pKi": 6.89}
{"COMPOUND": "CC(C)[C@H](CCC(=O)N(CCO)C1CCCCC1)N1Cc2cc(Oc3ccccc3)ncc2N=C1N", "pKi": 8.10}
{"COMPOUND": "NC1=Nc2cnc(Oc3ccccc3)cc2CN1CCNC(=O)C1CCCCC1", "pKi": 6.78}

====

EXPERIMENTAL SYSTEM: human BACE-1 (Homo sapiens, UniProt P56817)
Sequence (P56817 46-501): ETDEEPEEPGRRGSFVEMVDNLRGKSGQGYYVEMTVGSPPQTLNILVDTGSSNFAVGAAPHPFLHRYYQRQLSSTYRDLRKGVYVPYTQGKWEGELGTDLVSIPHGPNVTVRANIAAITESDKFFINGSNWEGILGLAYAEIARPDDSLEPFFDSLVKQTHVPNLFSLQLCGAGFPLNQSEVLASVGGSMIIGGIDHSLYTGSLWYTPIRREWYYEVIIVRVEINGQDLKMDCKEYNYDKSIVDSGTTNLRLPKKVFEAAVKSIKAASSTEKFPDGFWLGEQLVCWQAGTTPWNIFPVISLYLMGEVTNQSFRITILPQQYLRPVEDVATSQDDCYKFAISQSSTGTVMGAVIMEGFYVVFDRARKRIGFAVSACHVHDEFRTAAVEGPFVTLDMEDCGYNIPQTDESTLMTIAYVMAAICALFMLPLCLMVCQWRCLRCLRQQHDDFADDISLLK
ASSAY EXPLANATION: CEREP BACE Inhibition Assay
Format: biochemical
MEASUREMENT CONDITIONS: 1.0 μM; percent inhibition of the control activity; recombinant enzyme; read-out: % Inhibition @ 1.0 μM
Counter-ions that a name gives are not always drawn.
PARAMETER: inhibition at 1 µM (%)

{"MOLECULE": "CC(C)(C)CCN(CCNS(N)(=O)=O)C(=O)CC[C@@H](C1CCCCC1)N1Cc2cc(Oc3ccccc3)ncc2N=C1N", "OBSERVED": 100}
{"MOLECULE": "CC(C)(C)OC[C@H](CN)NCCC[C@@H](C1CCCCC1)N1Cc2cc(Oc3ccccc3)ncc2N=C1N", "OBSERVED": 82}
{"MOLECULE": "CC(C)(C)CCNC(=O)C[C@@H](C1CCCCC1)N1Cc2cc(Oc3ccccc3)ncc2N=C1N [Compound 202, hydrochloride salt]", "OBSERVED": 88}
{"MOLECULE": "CC(C)CN(CCC[C@@H](C(C)C)N1Cc2cc(Oc3ccccc3)ncc2N=C1N)CCN1CCOCC1", "OBSERVED": 60}
{"MOLECULE": "CC(C)(C)CNCCC[C@@H](C1CCCCC1)N1Cc2cc(Oc3ccccc3)ncc2N=C1N", "OBSERVED": 94}

====

EXPERIMENTAL SYSTEM: human BACE-1 (Homo sapiens, UniProt P56817)
ASSAY EXPLANATION: CEREP BACE Inhibition Assay
Format: biochemical
MEASUREMENT CONDITIONS: 1.0 μM; percent inhibition of the control activity; recombinant enzyme; read-out: % Inhibition @ 1.0 μM
Documented inhibition at 1 µM across a set of compounds

{"SMILES TEXT": "CC(C)[C@H](CCC(=O)OCc1ccccc1)N1Cc2cc(Oc3ccccc3)ncc2N=C1N", "EXPERIMENTAL SYSTEM": "human BACE-1 (Homo sapiens, UniProt P56817)", "inhibition at 1 µM (%)": 97}
{"SMILES TEXT": "CC(C)(C)OCCN(Cc1cncs1)C(=O)CC[C@@H](C1CCCCC1)N1Cc2cc(Oc3ccccc3)ncc2N=C1N", "EXPERIMENTAL SYSTEM": "human BACE-1 (Homo sapiens, UniProt P56817)", "inhibition at 1 µM (%)": 102}
{"SMILES TEXT": "CN(CCc1ccccc1)C(=O)CC[C@@H](C1CCCCC1)N1Cc2cc(Oc3ccccc3)ncc2N=C1N", "EXPERIMENTAL SYSTEM": "human BACE-1 (Homo sapiens, UniProt P56817)", "inhibition at 1 µM (%)": 97}
{"SMILES TEXT": "CCOCCCNC(=O)CC[C@@H](C1CCCCC1)N1Cc2cc(Oc3ccccc3)ncc2N=C1N", "EXPERIMENTAL SYSTEM": "human BACE-1 (Homo sapiens, UniProt P56817)", "inhibition at 1 µM (%)": 92}
{"SMILES TEXT": "CC(C)OC(=O)[C@H](COC(C)(C)C)NC(=O)CC[C@@H](C1CCCCC1)N1Cc2cc(Oc3ccccc3)ncc2N=C1N", "EXPERIMENTAL SYSTEM": "human BACE-1 (Homo sapiens, UniProt P56817)", "inhibition at 1 µM (%)": 98}
{"SMILES TEXT": "CC(C)CN(CCC[C@@H](C1CCCCC1)N1Cc2cc(Oc3ccccc3)ncc2N=C1N)CCN1CCOCC1", "EXPERIMENTAL SYSTEM": "human BACE-1 (Homo sapiens, UniProt P56817)", "inhibition at 1 µM (%)": 101}
{"SMILES TEXT": "CC(C)(C)c1cn(CC[C@@H](C2CCCCC2)N2Cc3cc(Oc4ccccc4)ncc3N=C2N)nn1", "EXPERIMENTAL SYSTEM": "human BACE-1 (Homo sapiens, UniProt P56817)", "inhibition at 1 µM (%)": 100}
{"SMILES TEXT": "NC1=Nc2cnc(Oc3ccccc3)cc2CN1[C@@H](CN1CC2(CCCCC2)NC1=O)C1CCCCC1", "EXPERIMENTAL SYSTEM": "human BACE-1 (Homo sapiens, UniProt P56817)", "inhibition at 1 µM (%)": 52}
{"SMILES TEXT": "Cc1nc([C@H](COC(C)(C)C)NC(=O)CC[C@@H](C2CCCCC2)N2Cc3cc(Oc4ccccc4)ncc3N=C2N)no1", "EXPERIMENTAL SYSTEM": "human BACE-1 (Homo sapiens, UniProt P56817)", "inhibition at 1 µM (%)": 90}
{"SMILES TEXT": "CC(C)[C@H](C(=O)N(C)CCc1ccccc1)N1Cc2cc(Oc3ccccc3)ncc2N=C1N", "EXPERIMENTAL SYSTEM": "human BACE-1 (Homo sapiens, UniProt P56817)", "inhibition at 1 µM (%)": 52}
{"SMILES TEXT": "NC1=Nc2cnc(Oc3ccccc3)cc2CN1[C@@H](CCC(=O)NCCN1CCOCC1)C1CCCCC1", "EXPERIMENTAL SYSTEM": "human BACE-1 (Homo sapiens, UniProt P56817)", "inhibition at 1 µM (%)": 54}
{"SMILES TEXT": "NC1=Nc2cnc(Oc3ccccc3)cc2CN1[C@@H](CCCNC[C@H]1CCCO1)C1CCCCC1", "EXPERIMENTAL SYSTEM": "human BACE-1 (Homo sapiens, UniProt P56817)", "inhibition at 1 µM (%)": 88}
{"SMILES TEXT": "CC(C)(C)CCN(CCC[C@@H](C1CCCCC1)N1Cc2cc(Oc3ccccc3)ncc2N=C1N)CCN1CCOCC1", "EXPERIMENTAL SYSTEM": "human BACE-1 (Homo sapiens, UniProt P56817)", "inhibition at 1 µM (%)": 100}
{"SMILES TEXT": "CC(C)(C)CCNCC[C@@H](C1CCCCC1)N1Cc2cc(Oc3ccccc3)ncc2N=C1N", "EXPERIMENTAL SYSTEM": "human BACE-1 (Homo sapiens, UniProt P56817)", "inhibition at 1 µM (%)": 96}
{"SMILES TEXT": "NC1=Nc2cnc(Oc3ccccc3)cc2CN1[C@@H](CCC(=O)N1CCOCC1)C1CCCCC1", "EXPERIMENTAL SYSTEM": "human BACE-1 (Homo sapiens, UniProt P56817)", "inhibition at 1 µM (%)": 85}

====

EXPERIMENTAL SYSTEM: human BACE-1 (Homo sapiens)
ASSAY EXPLANATION: CEREP BACE Inhibition Assay
Format: biochemical
MEASUREMENT CONDITIONS: recombinant enzyme; read-out: IC50
pIC50: −log10 of the molar value.
PARAMETER: pIC50

{"COMPOUND": "NC1=Nc2cnc(Oc3ccccc3)cc2CN1[C@@H](CCC(=O)N1CCC[C@H]1CO)C1CCCCC1 [Compound 143]", "PARAMETER": "pIC50", "OBSERVED": 5.92}
{"COMPOUND": "NC1=Nc2cnc(Oc3ccccc3)cc2CN1[C@@H](CCC(=O)N(Cc1ccncc1)C1CCCCC1)C1CCCCC1 [Compound 79]", "PARAMETER": "pIC50", "OBSERVED": 6.82}
{"COMPOUND": "CC(C)[C@H](COCC1CC(C(C)(C)C)=NO1)N1Cc2cc(Oc3ccccc3)ncc2N=C1N (some centres unmarked) [Compound 236]", "PARAMETER": "pIC50", "OBSERVED": 6.74}
{"COMPOUND": "CC(C)(C)N(CCO)C(=O)CC[C@@H](C1CCCCC1)N1Cc2cc(Oc3ccccc3)ncc2N=C1N [Compound 115]", "PARAMETER": "pIC50", "OBSERVED": 6.64}
{"COMPOUND": "CC(C)CN(CCN1CCOCC1)C(=O)CC[C@@H](C1CCCCC1)N1Cc2cc(Oc3ccccc3)ncc2N=C1N [Compound 189]", "PARAMETER": "pIC50", "OBSERVED": 6.85}
{"COMPOUND": "NC1=Nc2cnc(Oc3ccccc3)cc2CN1[C@@H](CN1C(=O)NC2(CCCCC2)C1=O)C1CCCCC1 [Compound 229]", "PARAMETER": "pIC50", "OBSERVED": 6.41}
{"COMPOUND": "CC(CO)NC(=O)C(COC(C)(C)C)NC(=O)CCC(C1CCCCC1)N1Cc2cc(Oc3ccccc3)ncc2N=C1N (centres unmarked) [Compound 109]", "PARAMETER": "pIC50", "OBSERVED": 6.92}
{"COMPOUND": "C[C@H](CO)N(C)C(=O)CC[C@@H](C1CCCCC1)N1Cc2cc(Oc3ccccc3)ncc2N=C1N [Compound 183]", "PARAMETER": "pIC50", "OBSERVED": 6.24}
{"COMPOUND": "CN(C(=O)CC[C@@H](C1CCCCC1)N1Cc2cc(Oc3ccccc3)ncc2N=C1N)[C@@H](COC(C)(C)C)C(=O)O [Compound 66]", "PARAMETER": "pIC50", "OBSERVED": 6.59}
{"COMPOUND": "CC(C)[C@H](CCC(=O)N[C@@H](COC(C)(C)C)CN1CCCCC1)N1Cc2cc(Oc3ccccc3)ncc2N=C1N [Compound 101]", "PARAMETER": "pIC50", "OBSERVED": 6.49}
{"COMPOUND": "CC(C)(C)OCCN(Cc1ccccn1)C(=O)CC[C@@H](C1CCCCC1)N1Cc2cc(Oc3ccccc3)ncc2N=C1N [Compound 155]", "PARAMETER": "pIC50", "OBSERVED": 7.08}
{"COMPOUND": "CC(C)(C)CNC(=O)CC[C@@H](C1CCCCC1)N1Cc2cc(Oc3ccccc3)ncc2N=C1N [Compound 160]", "PARAMETER": "pIC50", "OBSERVED": 7.18}
{"COMPOUND": "CC(C)(C)CCN(CCC[C@@H](C1CCCCC1)N1Cc2cc(Oc3ccccc3)ncc2N=C1N)CCN1CCOCC1 [Compound 182]", "PARAMETER": "pIC50", "OBSERVED": 7.05}
{"COMPOUND": "CC(C)OC(=O)[C@@H](COC(C)(C)C)NC(=O)CC[C@@H](C1CCCCC1)N1Cc2cc(Oc3ccccc3)ncc2N=C1N [Compound 140]", "PARAMETER": "pIC50", "OBSERVED": 6.82}
